# credit: patent US20190177408A1

STUDY TARGET: T1, human soluble IL-4Rα (sIL-4Rα) (human, UniProt P24394 26-232)
T1 construct: Bought reagent (PEPRO TECH, Catalog Number 200-04R); also called shIL-4Rα; soluble hIL-4 Rα
T1 sequence: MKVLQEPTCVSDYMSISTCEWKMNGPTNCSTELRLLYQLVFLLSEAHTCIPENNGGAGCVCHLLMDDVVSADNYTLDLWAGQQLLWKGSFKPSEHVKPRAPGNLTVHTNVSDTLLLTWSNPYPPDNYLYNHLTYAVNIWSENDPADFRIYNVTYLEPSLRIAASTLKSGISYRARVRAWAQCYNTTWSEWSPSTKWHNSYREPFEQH
EXPERIMENT DESCRIPTION: ELISA, coated sIL-4Rα, culture supernatant
Reported OD 450/OD450Control antibody 1 is given for each of the following binders.

{"BINDER": "L1019H1000 (antibody, V domains shown, human kappa) VH: EVQLVQSGGGLVHPGGSLRLSCAGSGFTFSRNAMFWVRQAPGKGLEWVSGIGTGGATNYADSVKGRFTISRDNAKNSLYLQMNSLRAEDMAVYYCARGRYYFDYWGQGTLVTVSS VL: EIVLTQSPGTLSLSPGERATLSCRASQSVSNSYLAWYQQKPGQAPRLLIFGASSRATGIPDRFSGSGSGTDFTLTISRLEPEDFAVYYCQQYDHSAGWTFGQGTKVEIK", "OD 450/OD450Control antibody 1": 1.79}
{"BINDER": "L1020H1016 (antibody, V domains shown, human kappa) VH: EVQLVQSGGGLVHPGGSLRLSCAGSGFTFSRNAMFWVRQAPGKGLEWVSGIGTGGATNYADSVKGRFTISRDNAKNSLYLQMNSLRAEDMAVYYCARGRYYFPWWGQGTLVTVSS VL: EIVLTQSPGTLSLSPGERATLSCRASQSVSSSYLAWYQQKPGQAPRLLIYGASSRATGIPDRFSGSGSGTDFTLTISRLEPEDFAVYYCQQYDHSAGWTFGQGTKVEIK", "OD 450/OD450Control antibody 1": 0.8}
{"BINDER": "L1020H1020 (antibody, V domains shown, human kappa) VH: EVQLVQSGGGLVHPGGSLRLSCAGSGFTFSRNAMFWVRQAPGKGLEWVSGIGTGGATSYADSVKGRFTISRDNAKNSLYLQMNSLRAEDMAVYYCARGRYYFPWWGQGTLVTVSS VL: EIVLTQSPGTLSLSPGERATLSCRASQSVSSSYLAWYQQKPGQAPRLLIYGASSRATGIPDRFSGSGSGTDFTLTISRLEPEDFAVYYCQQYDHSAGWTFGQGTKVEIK", "OD 450/OD450Control antibody 1": 0.26}

input: Which OD 450/OD450Control antibody 1 value belongs to L1021H1000 (antibody, V domains shown, human kappa) VH: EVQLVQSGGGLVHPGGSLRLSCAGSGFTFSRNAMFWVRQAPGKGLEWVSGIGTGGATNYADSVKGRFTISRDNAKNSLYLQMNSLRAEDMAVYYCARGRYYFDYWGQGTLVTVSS VL: EIVLTQSPGTLSLSPGERATLSCRASQSVSSSYLAWYQQKPGQAPRLLIFGASSRAPGIPDRFSGSGSGTDFTLTISRLEPEDFAVYYCQQYDHSAGWTFGQGTKVEIK ?
output: 2.42

input: Please report the recorded OD 450/OD450Control antibody 1 for L1013H1000 (antibody, V domains shown, human kappa) VH: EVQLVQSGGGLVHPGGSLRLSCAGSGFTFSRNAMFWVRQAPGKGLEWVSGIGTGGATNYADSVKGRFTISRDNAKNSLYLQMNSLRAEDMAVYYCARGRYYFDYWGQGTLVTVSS VL: EIVLTQSPGTLSLSPGERATLSCRASQSVSNSYLAWYQQKPGQAPRLLIFGASSRATGIPDRFSGSGSGTDFTLTISRLEPEDFAVYYCQQYDHSPPWTFGQGTKVEIK .
output: 0.24
